- targetUnderTest: Oxytocin receptor (Homo sapiens)
- Sequence (P30559 whole entry): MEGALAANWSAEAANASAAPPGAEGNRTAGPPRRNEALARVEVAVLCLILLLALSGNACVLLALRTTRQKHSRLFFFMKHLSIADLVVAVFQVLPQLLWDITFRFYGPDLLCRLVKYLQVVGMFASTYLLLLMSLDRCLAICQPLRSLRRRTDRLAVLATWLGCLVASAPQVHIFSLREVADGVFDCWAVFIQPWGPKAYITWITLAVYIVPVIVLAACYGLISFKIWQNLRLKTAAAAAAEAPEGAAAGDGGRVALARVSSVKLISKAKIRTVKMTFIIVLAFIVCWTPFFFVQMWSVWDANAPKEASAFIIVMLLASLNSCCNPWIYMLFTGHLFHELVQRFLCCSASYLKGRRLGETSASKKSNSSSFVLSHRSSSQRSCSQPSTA
- protocolDescription: Antagonist activity at human OXTR expressed in CHOK1 cells assessed as oxytocin-induced beta-arrestin recruitment pre-incubated for 30 mins before oxytocin stimulation for 90 or 180 mins by chemiluminescence method
Square brackets hold non-standard residues; d marks the D form. Peptide text beside a SMILES is read from it. * marks the point of attachment. X1 = CC[C@H](C)[C@@H](OC(=O)/C=C/c1ccccc1)C(=O)*; X3 = CC[C@H](C)[C@@H](OC(=O)/C=C\c1ccccc1)C(=O)*; X2 = CC[C@H](C)[C@@H](OC(=O)CCc1ccccc1)C(=O)*; dNMeF = CN[C@H](Cc1ccccc1)C(=O)O; NMeL = CN[C@@H](CC(C)C)C(=O)O
parameter: pIC50
Entry type: numeric. Quantity: pIC50, the -log10 of concentration in molar units.

The examples below pair each entry with its known result.
{"compound": "CC[C@H](C)[C@@H](OC(=O)CCc1ccccc1)C(=O)N1CCC[C@H]1C(=O)NCC(=O)N(C)[C@@H](CC(C)C)C(=O)N[C@@H](C)C(=O)N(C)[C@H](Cc1ccccc1)C(=O)N1CCC[C@H]1C(=O)OC (X2-PG[NMeL]A[dNMeF]P-OMe)", "pIC50": 5.27}
{"compound": "CC[C@H](C)[C@@H](OC(=O)/C=C\\c1ccccc1)C(=O)N1CCC[C@H]1C(=O)NCC(=O)N(C)[C@@H](CC(C)C)C(=O)N[C@@H](C)C(=O)N(C)[C@H](Cc1ccccc1)C(=O)N1CCC[C@H]1C(=O)OC (X3-PG[NMeL]A[dNMeF]P-OMe)", "pIC50": 5.24}

Now turn to the next compound.
Retrieve pIC50 measured for CC[C@H](C)[C@@H](OC(=O)/C=C/c1ccccc1)C(=O)N1CCC[C@H]1C(=O)NCC(=O)N(C)[C@@H](CC(C)C)C(=O)N[C@@H](C)C(=O)N(C)[C@H](Cc1ccccc1)C(=O)N1CCC[C@H]1C(=O)OC (X1-PG[NMeL]A[dNMeF]P-OMe) and print it. 5.17

###

- targetUnderTest: Atypical chemokine receptor 3 (Homo sapiens)
- Sequence (P25106 whole entry): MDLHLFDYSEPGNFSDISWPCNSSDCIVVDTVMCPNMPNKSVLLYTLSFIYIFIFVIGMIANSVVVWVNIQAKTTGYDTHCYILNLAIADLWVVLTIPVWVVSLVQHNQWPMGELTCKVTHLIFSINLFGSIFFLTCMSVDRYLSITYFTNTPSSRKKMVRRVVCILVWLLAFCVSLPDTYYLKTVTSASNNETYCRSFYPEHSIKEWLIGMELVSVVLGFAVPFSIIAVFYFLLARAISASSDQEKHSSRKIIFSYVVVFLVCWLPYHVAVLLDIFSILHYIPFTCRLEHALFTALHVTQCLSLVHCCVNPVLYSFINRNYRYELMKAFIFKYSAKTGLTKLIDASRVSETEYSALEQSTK
- protocolDescription: Agonist activity at human CXCR7 expressed in CHOK1 cells assessed as induction of beta-arrestin recruitment by chemiluminescence method
Square brackets hold non-standard residues; d marks the D form. Peptide text beside a SMILES is read from it. * marks the point of attachment. X3 = CC[C@H](C)[C@@H](OC(=O)/C=C\c1ccccc1)C(=O)*; dNMeF = CN[C@H](Cc1ccccc1)C(=O)O; NMeL = CN[C@@H](CC(C)C)C(=O)O
# pEC50 per record follows
Entry type: numeric. Quantity: pEC50, the -log10 of concentration in molar units.

Provide pEC50, tested on Atypical chemokine receptor 3 (Homo sapiens), for CC[C@H](C)[C@@H](OC(=O)/C=C\c1ccccc1)C(=O)N1CCC[C@H]1C(=O)NCC(=O)N(C)[C@@H](CC(C)C)C(=O)N[C@@H](C)C(=O)N(C)[C@H](Cc1ccccc1)C(=O)N1CCC[C@H]1C(=O)OC (X3-PG[NMeL]A[dNMeF]P-OMe) . 5.23
